Data provenance: patent US8987284B2

- Test Name: Pharmacokinetic study in rat
- Assay type: in vivo
- Conditions Used: plasma, IV, 2 mg/Kg, read-out: T½ (converted)
Experimental Endpoint: half-life (h)

CP1(=O)CCN(CC#Cc2ccc3ncnc(Nc4ccc(OCc5cccc(F)c5)c(Cl)c4)c3c2)CC1; 19.9

====

- Test Name: Pharmacokinetic study in mouse
- Format: in vivo
- Conditions Used: plasma, IV, 2 mg/Kg, read-out: AUC0-inf-obs
Experimental Endpoint: AUC(0-inf) (ng·h/mL)

CP1(=O)CCN(CC#Cc2ccc3ncnc(Nc4ccc(OCc5cccc(F)c5)c(Cl)c4)c3c2)CC1 [Example 4]; 5080

====

- Test Name: Pharmacokinetic study in dog
- Assay type: in vivo, Beagle dogs
- Conditions Used: beagle, plasma, PO, 10 mg/Kg, read-out: T½ (converted)
Experimental Endpoint: half-life

CP1(=O)CCN(CC#Cc2ccc3ncnc(Nc4ccc(OCc5cccc(F)c5)c(Cl)c4)c3c2)CC1; 3.8 h
